meta.source: the supplement of paper PMC8975748

- System: Saccharomyces cerevisiae BY4741 SeMeCo community
- test-description: z-score of subpopulation abundance vs DMSO median, subpopulation auxotrophic for LM; higher = larger share of this subpopulation than in DMSO controls
- condition-summary: 10 µM; 24 h; SM minimal medium; subpopulation (auxotrophy): LM
Structures can show the parent of a compound that is named as a salt.
So basically, the class depends on measured z-score of subpopulation abundance, and the ranges are lowest (below -0.5), middle (-0.5 to below 0.5), highest (0.5 or more)

compound | group
COc1cc2c(cc1OC)-c1cc3ccc(OC)c(OC)c3c[n+]1CC2 [Palmatine] | highest
Cc1cccc(C)c1OCC(C)N (configuration not stated) [Mexiletine HCl] | lowest
Cc1nc2n(c(=O)c1CCN1CCC(c3noc4cc(F)ccc34)CC1)CCCC2O (configuration not stated) [Paliperidone] | middle
NC[C@@H]1O[C@H](O[C@H]2[C@@H](O)[C@H](O[C@@H]3[C@@H](O)[C@H](N)C[C@H](N)[C@H]3O[C@H]3O[C@H](CO)[C@@H](O)[C@H](O)[C@H]3N)O[C@@H]2CO)[C@H](N)[C@@H](O)[C@@H]1O [Paromomycin Sulfate] | highest
C[C@H]1c2cccc(O)c2C(O)=C2C(=O)[C@]3(O)C(O)=C(C(N)=O)C(=O)[C@@H](N(C)C)[C@@H]3[C@@H](O)[C@@H]21 [Doxycycline monohydrate] | middle
N#Cc1ccc2[nH]cc(CCCCN3CCN(c4ccc5oc(C(N)=O)cc5c4)CC3)c2c1 [Vilazodone] | middle
CCCc1nc(C)c2c(=O)nc(-c3cc(S(=O)(=O)N4CCN(CC)CC4)ccc3OCC)[nH]n12 [Vardenafil HCl Trihydrate] | lowest
O=C1CN(/N=C/c2ccc(-c3ccc([N+](=O)[O-])cc3)o2)C(=O)N1 [Dantrolene sodium hemiheptahydrate] | highest
CCN(Cc1ccncc1)C(=O)C(CO)c1ccccc1 (configuration not stated) [Tropicamide] | highest
C[C@@H]1C/C=C/C=C/C=C/C=C/[C@H](O[C@@H]2O[C@H](C)[C@@H](O)[C@H](N)[C@@H]2O)C[C@@H]2O[C@](O)(C[C@@H](O)C[C@H]3O[C@@H]3/C=C/C(=O)O1)C[C@H](O)[C@H]2C(=O)O [Natamycin] | highest
CC[C@H]1OC(=O)[C@H](C)[C@@H](O[C@H]2C[C@@](C)(OC)[C@@H](O)[C@H](C)O2)[C@H](C)[C@@H](O[C@@H]2O[C@H](C)C[C@H](N(C)C)[C@H]2O)[C@](C)(O)C[C@@H](C)CN(C)[C@H](C)[C@@H](O)[C@]1(C)O [Azithromycin Dihydrate] | middle
CC1(C)S[C@@H]2[C@H](NC(=O)[C@H](N)c3ccccc3)C(=O)N2[C@H]1C(=O)O [Ampicillin Trihydrate] | middle
Clc1ccc(CCC(Cn2ccnc2)Sc2c(Cl)cccc2Cl)cc1 (configuration not stated) [Butoconazole] | lowest
Clc1ccc(COC(Cn2ccnc2)c2ccc(Cl)cc2Cl)c(Cl)c1 (configuration not stated) [Miconazole Nitrate] | lowest
O=C1[C@H]2CCCC[C@H]2C(=O)N1CCCCN1CCN(c2nsc3ccccc23)CC1 [Perospirone hydrochloride] | lowest
O=C(O)c1cn(C2CC2)c2cc(N3CCNCC3)c(F)cc2c1=O [Ciprofloxacin hydrochloride hydrate] | middle
